biological target: Nanchung (Nan) protein alone (Drosophila melanogaster)
Sequence (A0ACM8PYI9 entry or part of it): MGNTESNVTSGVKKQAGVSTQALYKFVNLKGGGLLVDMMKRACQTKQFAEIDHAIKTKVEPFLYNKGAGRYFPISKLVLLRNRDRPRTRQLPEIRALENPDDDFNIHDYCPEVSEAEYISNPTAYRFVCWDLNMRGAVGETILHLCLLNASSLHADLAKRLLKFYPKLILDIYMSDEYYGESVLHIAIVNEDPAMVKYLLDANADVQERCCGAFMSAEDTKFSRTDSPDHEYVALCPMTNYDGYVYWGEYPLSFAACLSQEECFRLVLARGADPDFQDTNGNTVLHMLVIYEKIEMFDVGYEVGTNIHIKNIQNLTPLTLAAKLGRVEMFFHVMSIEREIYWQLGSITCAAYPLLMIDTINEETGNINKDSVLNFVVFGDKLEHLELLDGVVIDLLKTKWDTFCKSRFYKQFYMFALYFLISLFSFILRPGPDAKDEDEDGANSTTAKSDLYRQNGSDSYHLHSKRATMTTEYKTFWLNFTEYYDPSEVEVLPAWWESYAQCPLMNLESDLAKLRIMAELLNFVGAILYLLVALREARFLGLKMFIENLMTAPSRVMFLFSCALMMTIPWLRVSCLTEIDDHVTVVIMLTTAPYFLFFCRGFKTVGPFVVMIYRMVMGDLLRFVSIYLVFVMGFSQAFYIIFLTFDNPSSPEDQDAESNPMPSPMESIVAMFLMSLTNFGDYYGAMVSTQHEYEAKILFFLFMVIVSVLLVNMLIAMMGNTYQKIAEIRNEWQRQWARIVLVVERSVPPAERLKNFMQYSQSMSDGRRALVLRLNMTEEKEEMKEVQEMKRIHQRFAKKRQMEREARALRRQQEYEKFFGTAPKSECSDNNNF

{"compound": "C[C@]1(COC(=O)C2CC2)[C@@H]2C[C@H](O)[C@@]3(C)Oc4cc(-c5cccnc5)oc(=O)c4[C@H](O)[C@@H]3[C@@]2(C)CC[C@@H]1OC(=O)C1CC1 [afidopyropen]", "Kd (nM)": 4.5}

----------
target: complexes formed by Nanchung protein and Inactive protein (Nan + Iav) (Drosophila melanogaster, UniProt Q9VUD5+Q9W3W0); construct: full-length Iav C-terminally fused to FLAG tags and AcGFP; adenoviral co-expression in CHO-K1, membranes; [3H]-afidopyropen tracer; assay: Competition binding with [3H]-afidopyropen to membranes from CHO-K1 cells co-expressing Nanchung and Inactive; details: FIG. 6, [3H]-afidopyropen displacement, Nan (SEQ ID NO 7) C-terminal HA/mCherry, Iav (NP_572353) C-terminal FLAG/AcGFP, pH 7.4, 3 h room temperature, Cheng-Prusoff, read-out: Nan + Iav (Nanchung:Inactive complex) Ki
Sequence (Q9VUD5 1-833): as the sequence (A0ACM8PYI9 entry or part of it) above
Sequence (Q9W3W0 1-1123): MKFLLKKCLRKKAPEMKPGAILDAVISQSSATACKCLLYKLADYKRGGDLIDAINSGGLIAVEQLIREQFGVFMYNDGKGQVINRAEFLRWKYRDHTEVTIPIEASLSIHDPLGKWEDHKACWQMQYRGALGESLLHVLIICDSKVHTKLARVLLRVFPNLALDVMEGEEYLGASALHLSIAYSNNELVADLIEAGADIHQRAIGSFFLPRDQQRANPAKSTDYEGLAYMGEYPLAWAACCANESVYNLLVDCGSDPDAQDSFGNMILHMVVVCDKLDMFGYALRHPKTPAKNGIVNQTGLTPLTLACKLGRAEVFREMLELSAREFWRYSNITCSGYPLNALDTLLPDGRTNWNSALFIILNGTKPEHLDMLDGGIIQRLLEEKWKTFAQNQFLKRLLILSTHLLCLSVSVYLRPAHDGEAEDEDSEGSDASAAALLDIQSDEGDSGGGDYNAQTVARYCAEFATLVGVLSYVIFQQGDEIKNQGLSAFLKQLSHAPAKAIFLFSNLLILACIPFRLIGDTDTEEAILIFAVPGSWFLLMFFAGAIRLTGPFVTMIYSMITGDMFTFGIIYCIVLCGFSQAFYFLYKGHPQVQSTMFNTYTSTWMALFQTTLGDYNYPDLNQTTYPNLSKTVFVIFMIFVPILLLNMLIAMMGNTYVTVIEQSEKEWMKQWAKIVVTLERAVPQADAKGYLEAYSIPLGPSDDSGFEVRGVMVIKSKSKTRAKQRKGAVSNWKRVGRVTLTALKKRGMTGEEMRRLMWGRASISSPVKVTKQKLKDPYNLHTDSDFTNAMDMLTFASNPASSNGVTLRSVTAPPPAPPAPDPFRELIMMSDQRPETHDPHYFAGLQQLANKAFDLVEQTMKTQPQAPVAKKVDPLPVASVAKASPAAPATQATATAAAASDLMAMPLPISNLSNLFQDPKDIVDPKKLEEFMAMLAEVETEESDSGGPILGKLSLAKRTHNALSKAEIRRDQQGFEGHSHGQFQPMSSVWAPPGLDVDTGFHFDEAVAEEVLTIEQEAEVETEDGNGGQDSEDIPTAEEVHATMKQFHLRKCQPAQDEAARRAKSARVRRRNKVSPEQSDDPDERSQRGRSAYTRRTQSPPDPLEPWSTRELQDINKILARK
pKi: −log10 of the molar value.

{"compound-structure": "CC1=NNC(=O)N(/N=C/c2cccnc2)C1", "pKi": 7.37}

Data origin: patent US20230176038A1
